assay: Stability of the compound at 30 to 80 degC after 30 mins by UV spectrophotometry; type: physicochemical; conditions: 0.5 h
Property measured: Stability

>>> assay_value("COc1ccc2cc3[n+](cc2c1OCCN(CCn1cncc1[N+](=O)[O-])Cc1ccccc1Cl)CCc1cc2c(cc1-3)OCO2.[Cl-]")
"Stable"
>>> assay_value("COc1ccc2cc3[n+](cc2c1OCCN(CCn1cncc1[N+](=O)[O-])Cc1ccc(F)cc1F)CCc1cc2c(cc1-3)OCO2.[Cl-]")
"Stable"
>>> assay_value("COc1ccc2cc3[n+](cc2c1OCCN(CCn1cncc1[N+](=O)[O-])Cc1cccc(Cl)c1)CCc1cc2c(cc1-3)OCO2.[Cl-]")
"Stable"
>>> assay_value("COc1ccc2cc3[n+](cc2c1OCCN(CCn1cnc([N+](=O)[O-])c1)Cc1ccccc1Cl)CCc1cc2c(cc1-3)OCO2.[Cl-]")
"Stable"
